Just for reference, PubChem BioAssay AID488857 is where these values come from.

Give inhibition for every item shown.
assay: ASC/caspase-1 reporter retest in S. cerevisiae at one dose, specificity check for NALP1 project (AID 488857); settings: S. cerevisiae ASC/Caspase-1, beta-galactosidase luminescence, 24 h; at 10 µM; hits give high values
In all, about 1,400 compounds went through this assay and about 560 (40%) were called active. So high a share suggests a set chosen from earlier hits. This is one part of the list.

## Task // returns reported inhibition for input O=[N+]([O-])/C(C(=C(Cl)Cl)N1CCN(Cc2ccccc2)CC1)=C1\NCCN1Cc1ccc(Cl)nc1
## Result 41.5% (inactive)

## Task Now give it for COc1ccc(N(CCC#N)S(=O)(=O)c2ccc(Cl)cc2)cc1 too.
## Result 26.1% (inactive)

## Task Now give it for Nc1ccc(C(=O)c2cccs2)cc1 too.
## Result 54.2% (active)

## Task Now give it for COc1cc(C2Nc3ccccc3C(=O)N2c2ccccc2)ccc1O (stereo not drawn) too.
## Result 15.1% (inactive)

## Task Now give it for Cc1nc(-c2ccccc2)cn2c1nc1ccccc12 too.
## Result 59.9% (active)

## Task Now give it for CC(=O)/C=C/n1c(=S)oc2ccccc21 too.
## Result 23.2% (inactive)

## Task Now give it for O=[N+]([O-])c1ccc2nc(-c3ccccn3)[nH]c2c1 too.
## Result 70% (active)

## Task Now give it for C/C(=N\NC(=O)c1csc(C)c1C)c1ccc(Cl)s1 too.
## Result 59.2% (active)

## Task Now give it for Cc1ccc(OCc2nc(-c3ccc(Cl)cc3)n[nH]2)cc1 too.
## Result 78.2% (active)

## Task Now give it for COc1ccccc1NC(=O)C1=C(C)NC(=O)NC1c1cccs1 (stereo not drawn) too.
## Result 32.2% (inactive)

## Task Now give it for Cc1ccc(-c2nc3cnccn3c2Nc2c(C)cccc2C)o1 too.
## Result 54.5% (active)

## Task Now give it for Cc1ccc(Sc2nnc(Cc3ccccc3)c3ccccc23)cc1 too.
## Result 48.1% (inactive)

## Task Now give it for Cc1ccc(S(=O)(=O)N(C(=O)c2ccncc2)c2ccc(OC(=O)c3ccncc3)c3ccccc23)cc1 too.
## Result 26.1% (inactive)

## Task Now give it for Cc1sc(NC(=O)c2cc3ccccc3oc2=O)c(C(=O)OC(C)C)c1-c1ccccc1 too.
## Result 36% (inactive)

## Task Now give it for COc1cccc(N2CCN(C3CCCC(C)C3)CC2)c1 (stereo not drawn) too.
## Result 38% (inactive)

## Task Now give it for O=S(=O)(N1CCCCC1)N1CCN(c2ccc(F)cc2)CC1 too.
## Result 45.9% (inactive)

## Task Now give it for COc1ccccc1NC(=O)c1ccc(C)s1 too.
## Result 50.4% (active)

## Task Now give it for CN(Cc1ccccc1)C(=O)c1ccc([N+](=O)[O-])o1 too.
## Result 41.7% (inactive)

## Task Now give it for CCCC(=O)c1ccc(-c2ccccc2)cc1 too.
## Result 57.2% (active)

## Task Now give it for CC(C)c1ccc(NCCC(=O)c2cccs2)cc1 too.
## Result 42% (inactive)

## Task Now give it for COCCN=C1Sc2nc3ccc(C)cc3cc2CN1Cc1ccco1 too.
## Result 57.1% (active)

## Task Now give it for O=C(NC(=O)N1CCN(c2ccc(F)cc2)CC1)c1ccccc1 too.
## Result 53% (active)

## Task Now give it for CN1c2ccccc2Sc2cc(N)ccc21 too.
## Result 87.7% (active)

## Task Now give it for CCOc1oc(-c2ccc(OC)cc2)nc1C(F)(F)F too.
## Result 40.6% (inactive)

## Task Now give it for O=C1CN(c2nnnn2-c2ccccc2)CCN1 too.
## Result 40.9% (inactive)

## Task Now give it for CCOC(=O)c1cc([N+](=O)[O-])c([N+](=O)[O-])cc1NC(C)=O too.
## Result 22.4% (inactive)

## Task Now give it for CC1=C(C(=O)Nc2ccc(Cl)cc2)C(c2ccncc2)C(C#N)=C(SCC(N)=O)N1 (stereo not drawn) too.
## Result 30.2% (inactive)

## Task Now give it for Cc1ccc(C(=O)c2c(NC(=O)c3ccncc3)sc3c2CCCC3)cc1 too.
## Result 58.1% (active)

## Task Now give it for Clc1ccc(N2CCN(c3cnc4ccccc4n3)CC2)cc1 too.
## Result 29.9% (inactive)

## Task Now give it for Cc1ccc(C(=O)CCC(=O)O)cc1 too.
## Result 26.7% (inactive)

## Task Now give it for c1ccc(-c2nc3cc4ccccc4cc3[nH]2)nc1 too.
## Result 84.5% (active)

## Task Now give it for C/C(=N\N(C)C)C1=C(O)c2ccccc2C1=O too.
## Result 32.5% (inactive)

## Task Now give it for O=C(c1ccc(Br)o1)N(c1ccccn1)C1CCCCC1 too.
## Result 33.8% (inactive)

## Task Now give it for O=C(O)c1cccnc1C(=O)N1CCc2c([nH]c3ccccc23)C1C(F)(F)F (stereo not drawn) too.
## Result 18.5% (inactive)

## Task Now give it for Cc1cc(Br)ccc1OCCn1ccnc1 too.
## Result 59.4% (active)

## Task Now give it for Cc1cccc(C)c1OCCNC(=O)CCC(=O)c1ccccc1 too.
## Result 31.6% (inactive)

## Task Now give it for O=C(/C=C/c1cccc([N+](=O)[O-])c1)c1ccco1 too.
## Result 36% (inactive)

## Task Now give it for CC(C)c1nc2sc3c(=O)[nH]cnc3c2c2c1CCC2 too.
## Result 23.9% (inactive)

## Task Now give it for Cn1nc(-c2ccc(Cl)cc2)nc2c(=O)n(C)c(=O)nc1-2 too.
## Result 97.8% (active)

## Task Now give it for CNC(=O)C(NC(=O)c1ccccc1)=C(C)C too.
## Result 38.2% (inactive)

## Task Now give it for O=C(CCC1CCCCC1)N1CCN(Cc2ccc3c(c2)OCO3)CC1 too.
## Result 67% (active)

## Task Now give it for CCCOc1ccccc1NC(=O)/C=C/C(N)=O too.
## Result 58% (active)

## Task Now give it for CC(C)(C)c1nnc(N/N=C/c2cc(Br)ccc2O)n(N)c1=O too.
## Result 86.8% (active)

## Task Now give it for CC1CCCCC1NC(=O)/C(C#N)=C/c1ccccc1F (stereo not drawn) too.
## Result 74.2% (active)

## Task Now give it for CN(C)c1ccc(NC(=O)COC(=O)c2cc(Cl)ccc2[N+](=O)[O-])cc1 too.
## Result 68% (active)

## Task Now give it for CCCCOc1ccccc1NC(=O)c1ccco1 too.
## Result 46.5% (inactive)

## Task Now give it for CNc1ccc(/C=C/C(=O)c2ccc3c(c2)OCCO3)cc1[N+](=O)[O-] too.
## Result 66.7% (active)

## Task Now give it for CCOC(=O)c1c(C)c(C(=O)NCCCOC(C)C)c(C)n1C too.
## Result 26.7% (inactive)
